molecular target: T1, EBV minimal peptide PPSTSSKLRPRWTFT (spotted for dot blot) (Human herpesvirus 4 (Epstein-Barr …)); experiment: far-Western, overlay or dot blot; settings: one partner purified
T1 construct: also called EBV gp350 minimal peptide; 72153; source: "recombinant peptide" spotted on nitrocellulose
T1 chain: PPSTSSKLRPRWTFT
Measured Quantity: binding result

binder="EBV_c186 (antibody, V domains shown, recombinant human IgG) VH: QVHLVQSGTEVRKPGASVKISCETSGFNFSDYYVHWVRQAPGQGLEWMGIINAGGGSTSYAQRFRGRVTVTRDTSTRSVYMELRSLAPNDTAVYYCTRDRDQRLLFDYWGQGSLLIVSS VL: SSELTQPPSVSVSPGQTARITCSGDALPKNYAYWYQQKSGQAPVLVIYEDNKRPSGIPERFSGSSSGTTATLTISGAQMEDEGDYYCYSKDRFGGGTKVTVL" measured_quantity="binding result" result=binds
binder="EBV_c124 with light chain D51K (antibody, V domains shown, source: Expi293 or ExpiCHO, recombinant; filtered culture supernatant) VH: QVQLVQSGAEVRKPGASVKVSCKASGYTFNTYFIQWVRQAPGQGLEWMGVINSSGSGTRYAPKFRGRVILTRDTSTSTAFMELSSLTSEDTAVYYCARAAEGDYGDSALDYWGQGTLVSVSS VL: SYELTQPHSVSVSPGQTASIACSGEKLDKKYTCWYQQRPGQSPVLVIYQKRKRPSGIPERFSGSNSGNTATLTISGTQAIDEADYYCQVWDSNTVVFGGGTKLTVL" measured_quantity="binding result" result=binds
